// values below are reported kinase still bound, per cent of control
Molecular target: STK17A (human) (UniProt Q9UEE5)
Sequence (Q9UEE5 whole entry, looked up): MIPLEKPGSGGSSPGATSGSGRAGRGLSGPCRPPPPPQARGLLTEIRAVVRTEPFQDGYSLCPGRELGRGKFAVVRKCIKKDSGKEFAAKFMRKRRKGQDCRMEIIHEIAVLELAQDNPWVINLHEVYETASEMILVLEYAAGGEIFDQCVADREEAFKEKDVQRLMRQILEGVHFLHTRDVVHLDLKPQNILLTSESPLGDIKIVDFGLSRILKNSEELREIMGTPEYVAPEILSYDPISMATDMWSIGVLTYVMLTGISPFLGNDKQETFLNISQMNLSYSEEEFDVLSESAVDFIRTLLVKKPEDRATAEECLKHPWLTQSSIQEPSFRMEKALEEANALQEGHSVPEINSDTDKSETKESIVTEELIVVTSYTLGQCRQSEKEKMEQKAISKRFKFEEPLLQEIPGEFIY
Assay: KINOMEscan competition binding
Details: compound 10.0 µM
// units = %; emit number, no label

N=C1NC(=O)/C(=C/c2ccc(-c3ccc4c(C(=O)Nc5ccc(N6CCNCC6)cc5)cccc4c3)o2)S1 = 0.1
CSC1=NC(=O)/C(=C/c2ccc(-c3ccc(S(N)(=O)=O)cc3)o2)S1 = 2.5
CN1C(=O)c2ccccc2N(C)c2nc(Nc3ccc(N4CCC(O)CC4)cc3)ncc21 = 100
CS(=O)(=O)Nc1ccc(-c2ccc(/C=C3\SC(=N)NC3=O)o2)c(O)c1 = 25
CS(=O)(=O)Nc1ccc(-c2cc(/C=C3\SC(=N)NC3=O)c[nH]c2=O)cc1 = 3.4

# kinase still bound, per cent of control (molecule: N=C1NC(=O)/C(=C/c2c[nH]c(=O)c(-c3ccc(N4CCNCC4)nc3)c2)S1 ) is 0.35

# kinase still bound, per cent of control (molecule: CN1C(=O)[C@H]2CCC[C@H]2N(C2CCCC2)c2nc(Nc3ccc(C(N)=O)cc3)ncc21 ) is 0.05

# kinase still bound, per cent of control (molecule: NS(=O)(=O)c1ccc(-c2ccc(/C=C3\C(=O)Nc4ccccc43)o2)cc1 ) is 12

# kinase still bound, per cent of control (molecule: O=C1NC(=S)S/C1=C\c1ccc(-c2cccc3ccccc23)o1 ) is 1.8

Where do these numbers come from? They come from the kinase profiling compilation of Christmann-Franck et al. (2016).
